# Study Target: Diacylglycerol lipase-beta (Mus musculus)
# Protocol Summary: serine hydrolase inhibition in mouse brain membranes, late-stage follow-up, selectivity assay for DAGLb inhibitor project, biochemical, gel-based competitive ABPP, fluorescence, set 2 (AID 602323)
# Conditions Used: mouse brain membrane, DAGLb, at 1 µM, active compounds read high
Measured Property: inhibition (%)

{"columns": ["Compound", "inhibition, %"],
 "data": [
  ["O=C(N1CCCCC1Cc1ccccc1)n1ncc(C(O)(c2ccccc2)c2ccccc2)n1 (stereo not given)", 80],
  ["O=C(c1ccc(-c2cn(C(=O)N3CCCCC3Cc3ccccc3)nn2)cc1)N1CCCCC1 (stereo not given)", 95],
  ["CC(C)CN(CCc1ccccc1)C(=O)n1cc(-c2ccc(OC(F)(F)F)cc2)nn1", 90],
  ["Cc1ccccc1-c1ccc(-c2cn(C(=O)N3CCCCC3Cc3ccccc3)nn2)cc1 (stereo not given)", 80],
  ["O=C(N1CCCCC1Cc1ccccc1)n1cc(-c2ccc(Br)cc2)nn1 (stereo not given)", 85]
]}

Numbers sourced from PubChem BioAssay AID602323.
